# Assayed Target: Adenosine receptors; A1 & A2a (Rattus norvegicus) (UniProt P25099+P30543)
# Sequence (P25099 whole entry, looked up): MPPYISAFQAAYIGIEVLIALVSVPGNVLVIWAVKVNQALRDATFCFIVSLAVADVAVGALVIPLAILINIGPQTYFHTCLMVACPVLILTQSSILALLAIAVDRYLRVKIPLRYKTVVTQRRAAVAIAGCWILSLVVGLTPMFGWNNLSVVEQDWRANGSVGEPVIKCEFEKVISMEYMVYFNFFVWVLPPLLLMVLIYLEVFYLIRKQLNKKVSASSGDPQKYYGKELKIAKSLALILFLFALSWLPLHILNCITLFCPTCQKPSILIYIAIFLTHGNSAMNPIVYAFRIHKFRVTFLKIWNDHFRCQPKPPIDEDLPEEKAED
# Sequence (P30543 whole entry, looked up): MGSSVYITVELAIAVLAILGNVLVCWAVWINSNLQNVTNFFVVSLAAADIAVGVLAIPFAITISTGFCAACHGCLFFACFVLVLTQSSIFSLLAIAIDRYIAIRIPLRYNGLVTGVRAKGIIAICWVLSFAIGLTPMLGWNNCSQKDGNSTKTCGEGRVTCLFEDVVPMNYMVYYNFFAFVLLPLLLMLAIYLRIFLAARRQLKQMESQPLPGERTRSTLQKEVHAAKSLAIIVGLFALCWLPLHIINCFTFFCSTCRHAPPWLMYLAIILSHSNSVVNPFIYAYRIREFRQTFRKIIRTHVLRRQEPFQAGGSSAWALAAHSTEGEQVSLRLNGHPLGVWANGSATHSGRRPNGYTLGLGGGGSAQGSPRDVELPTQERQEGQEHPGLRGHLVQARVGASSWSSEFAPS
Categories are defined by ranges of Index, namely low = under 10, intermediate = from 10 up to 70, high = 70 and over

| Smiles Notation | Assigned Category |
| --- | --- |
| Nc1nc(-c2cccc(CN3CCN(c4ccc(Cl)c(Cl)c4)CC3)c2)cc2nc(-c3ccco3)nn12 | low |
| Nc1cccc(-c2cc3nc(-c4ccco4)nn3c(N)n2)c1 | intermediate |
| CN(CCc1ccccc1)Cc1cccc(-c2cc3nc(-c4ccco4)nn3c(N)n2)c1 | high |
| Cc1cccc(-c2cc3nc(-c4ccco4)nn3c(N)n2)c1 | intermediate |
| Cc1ccc(-c2cc3nc(-c4ccco4)nn3c(N)n2)cc1 | intermediate |
| COCCOc1ccc(N2CCN(Cc3cccc(-c4cc5nc(-c6ccco6)nn5c(N)n4)c3)CC2)cc1C#N | high |
| Nc1nc(-c2cccc(CO)c2)cc2nc(-c3ccco3)nn12 | high |
| Nc1nc(-c2cccs2)cc2nc(-c3ccco3)nn12 | intermediate |
| COc1cccc(-c2cc3nc(-c4ccco4)nn3c(N)n2)c1OC | intermediate |
| COc1cccc(OC)c1-c1cc2nc(-c3ccco3)nn2c(N)n1 | low |
| N#Cc1cccc(-c2cc3nc(-c4ccco4)nn3c(N)n2)c1 | intermediate |
